# test_method_notes: NCI Yeast Anticancer Drug Screen. Data for the mec2-1 strain (AID 157)
# recorded_conditions: S. cerevisiae mec2-1 strain, at 5.0 µM (retest, dose inferred, filed as 0.5)
About 79,000 compounds went through this panel and 15% of them were active in at least one assay; those are over-represented in the sample as a whole. Activity calls are given as the source filed them. Rule as the data show it: active = growth inhibition above about 70%; inactive = the rest.
Assign a class; possible classes are active, inactive

Below, 2 compounds whose answers are already recorded.
# compound, label
records = [
    ("CCOC(=O)c1cc([N+](=O)[O-])cc([N+](=O)[O-])c1Sc1ncnc2nc[nH]c12", "inactive"),
    ("CC[n+]1ccc2c(C)c3[nH]c4ccc(O)cc4c3c(C)c2c1", "inactive"),
]

What classification did CCCCN(CCCC)CCSc1ccc(Cl)cc1 end up with in this test? inactive

What classification did O=C1c2ccccc2-c2n[nH]c3cccc1c23 end up with in this test? active

What classification did Cc1ccc(NN(NC(=O)OC(C)C)C(=O)OC(C)C)cc1 end up with in this test? inactive

====

# test_method_notes: NCI Yeast Anticancer Drug Screen. Data for the mlh1 rad18 strain (AID 175)
# recorded_conditions: S. cerevisiae mlh1 rad18 strain growth inhibition; at 50.0 µM
This is part of a sample that, as a whole, favours compounds with a hit. Of some 79,000 tested, about 15% had one in any assay. Active and inactive are the calls of the source. No stated cut-off is given here; in the data, active means growth inhibition above about 70%; inactive means the rest.
Assign a class; possible classes are active, inactive

Below, 3 compounds whose answers are already recorded.
# compound, label
rows = [
    ("Cc1ccc(CSC(N)=Nc2ccccc2)cc1C", "inactive"),
    ("FC(F)(F)c1cc(NC(=S)N2c3ccccc3-n3cccc3C2c2cccnc2)cc(C(F)(F)F)c1 (centres undefined)", "active"),
    ("CC(=O)Oc1ccc2c(c1)Cc1cc(N=C3C=CC(=O)O3)ccc1-2", "active"),
]

What classification did O=Nc1cccnc1N=O end up with in this test? active

What classification did O=C(c1ccc(Cl)cc1Cl)C(Cl)Cl end up with in this test? active

What classification did Oc1ccc2ccccc2c1C(c1ccc(Cl)cc1)c1c(O)ccc2ccccc12 end up with in this test? inactive

What classification did Cn1c(N)nc(-c2ccc(Cl)cc2)c1SSc1c(-c2ccc(Cl)cc2)nc(N)n1C end up with in this test? active

What classification did O=C1CSc2cc([N+](=O)[O-])ccc2N1 end up with in this test? inactive

What classification did COC(=O)CCNc1c2ccccc2nc2cccc([N+](=O)[O-])c12 end up with in this test? active

What classification did O=[N+]([O-])c1cc2no[n+]([O-])c2cc1N1CCCCC1 end up with in this test? active

What classification did CCCCCCc1cc(C(=O)OC/C(C)=N/NC(N)=O)c2ccccc2n1 end up with in this test? inactive

What classification did CCC(=O)OCCn1c2nc(=O)[nH]c(=O)c-2nc2cc(C)c(C)cc21 end up with in this test? inactive

What classification did O=C(N=Nc1cc(Cl)ccc1Cl)NNc1cc(Cl)ccc1Cl end up with in this test? inactive

What classification did COc1cccc2nc3ccccc3nc12 end up with in this test? inactive

What classification did Cc1ccc2ccc3cccc4ccc1c2c34 end up with in this test? active

What classification did CCCCCCCCCCCC(=O)N(C)C end up with in this test? active

What classification did CC(C)/C(Cl)=N\OC(=O)Nc1ccccc1F end up with in this test? inactive

What classification did S=C(N/N=C/c1ccccn1)Nc1ccc(Cl)cc1 end up with in this test? active

What classification did CC(=O)Nc1ccc(SC(C)=O)cc1 end up with in this test? active

What classification did CN(C)Cc1cc(N=Nc2ccc(Cl)cc2)cc(CN(C)C)c1O end up with in this test? active

What classification did Cc1c(C(=O)C(=O)c2ccccc2)c(C)c(C(=O)C(=O)c2ccccc2)c(C)c1C(=O)C(=O)c1ccccc1 end up with in this test? active

What classification did CN(CCc1ccccn1)c1ccc2c(c1)Cc1ccccc1-2 end up with in this test? active

What classification did CC(C)(CN1CCCCC1)C(=O)CC(SCCS(=O)(=O)O)c1ccc(Br)cc1 (centres undefined) end up with in this test? inactive

What classification did CCC(C)COC(=O)c1ccc(N=Cc2ccc(C=Nc3ccc(C(=O)OCC(C)CC)cc3)cc2)cc1 (centres undefined) end up with in this test? inactive

====

# test_method_notes: NCI Yeast Anticancer Drug Screen. Data for the CLN2oe strain (AID 163);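 also: 0% = growth of vehicle-only control cultures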
# recorded_conditions: S. cerevisiae CLN2oe strain, at 100.0 µM, active compounds read high
This is part of a sample that, as a whole, favours compounds with a hit. Of some 79,000 tested, about 15% had one in any assay.
Form field: growth inhibition (one value per entry).
A number alone suffices; assume %.

# molecule, endpoint_unit, growth inhibition
measured = [
    ("CC(C)OC(=O)Oc1ccccc1OC(=O)OC(C)C", "%", 4),
]

So what's the measured growth inhibition for this one? FC(F)(F)c1cc(NC(=S)N2c3ccccc3-n3cccc3C2c2cccnc2)cc(C(F)(F)F)c1 (stereo not given) -5

So what's the measured growth inhibition for this one? CCCCCCc1cc(C(=O)OC/C(C)=N/NC(N)=O)c2ccccc2n1 -10

So what's the measured growth inhibition for this one? CC1=C(C)Cc2c(O)ccc(O)c2C1 33

So what's the measured growth inhibition for this one? Cn1c2ccccc2c(=O)c2cc(NC(=O)CCCCC(=O)Nc3ccc4c(c3)c(=O)c3ccccc3n4C)ccc21 27

====

Form field: growth inhibition (one value per entry).
# test_method_notes: NCI Yeast Anticancer Drug Screen. Data for the rad18 strain (AID 177)
# recorded_conditions: S. cerevisiae rad18 mutant growth inhibition; at 100.0 µM; active compounds read high
# Experimental: Growth inhibition of yeast strains with defined genetic alterations is measured as a screen for potential anti-cancer activity. Selected strains with alterations in DNA damage repair or cell cycle control were exposed to compounds and growth inhibition was measured relative to vehicle treated controls. The strain used in this assay is rad18
About 79,000 compounds went through this panel and 15% of them were active in at least one assay; those are over-represented in the sample as a whole.
A number alone suffices; assume %.

Please review the entries below; each comes with its answer.
# compound, endpoint_unit, reported
measured = [
    ("C[CH2][Sn]([CH2]C)([O]C(=O)C(OC(C)=O)c1ccccc1)[O]C(=O)C(OC(C)=O)c1ccccc1 (stereo unspecified)", "%", 92),
    ("c1ccc2c(c1)sc1cc3ccncc3cc12", "%", 97),
    ("CCC/C(Cl)=N\\OC(=O)Nc1ccc(Br)cc1", "%", 98),
    ("COc1ccc(-c2cn(-c3ccc(I)cc3)c3ncnc(N)c23)cc1", "%", 0),
    ("CC(=O)OCC(=O)C1(O)CCC2C3CCC4CCCCC4(C)C3CCC21C (stereo unspecified)", "%", 92),
]

# ---- query compound ----
So what's the measured growth inhibition for this one? COc1cccc2nc3ccccc3nc12 95

====

Form field: growth inhibition (one value per entry).
# test_method_notes: NCI Yeast Anticancer Drug Screen. Data for the mgt1 strain (AID 153)
# recorded_conditions: S. cerevisiae mgt1 mutant growth inhibition; at 3.7 µM; active compounds read high
Compounds without any hit were thinned out: in the full panel of roughly 79,000, 15% have a hit.
A number alone suffices; assume %.

Please review the entries below; each comes with its answer.
# molecule, growth inhibition (%)
records = [
    ("CN(Cc1cnc2nc(N)nc(N)c2n1)c1ccc(C(=O)N[C@@H](CCC(=O)O)C(=O)O)cc1", -3),
    ("CCNc1nnc(CSc2nc(-c3ccccc3)c(-c3ccccc3)[nH]2)s1", -11),
    ("COc1ccc(OC)c2cc3ccccc3cc12", 14),
    ("Cc1c(C2=C(Br)C(=O)N(C)C2=O)c(=O)n(C)c(=O)n1C", 0),
    ("CCOC(=O)C(NC(=O)c1ccccc1)(N1CCN(c2cc3c(cc2F)c(=O)c(C(=O)O)cn3C2CC2)CC1)C(F)(F)F (stereo not given)", 1),
    ("Cc1nn(-c2cc(Cl)ccc2[N+](=O)[O-])c(C)c1Cl", -2),
    ("COc1ccc(NC(=S)N/N=C(\\c2ccccc2)c2ccccn2)cc1", -6),
    ("NC(N)=N/N=C\\c1c2ccccc2cc2ccccc12", -54),
]

So what's the measured growth inhibition for this one? CC(CC(C)(C)[N+](C)(C)C)[N+](C)(C)C (stereo not given) 1

So what's the measured growth inhibition for this one? Clc1ccc(SC(/C=C/NNC2=NC(c3ccccc3)C(c3ccccc3)=NN2)c2ccccc2)cc1 (stereo not given) 8

====

# test_method_notes: NCI Yeast Anticancer Drug Screen. Data for the rad50 strain (AID 155);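 also: 0% = growth of vehicle-only cultures of the same strain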
# recorded_conditions: S. cerevisiae rad50 strain growth inhibition; at 3.7 µM; active compounds read high
Compounds without any hit were thinned out: in the full panel of roughly 79,000, 15% have a hit.
recorded_endpoint: growth inhibition (%)
A number alone suffices; assume %.

# compound, reported
records = [
    ("Cc1ccc2[nH]c3c(C)c4cc[n+](C)cc4c(C)c3c2c1", 16),
    ("OC(COc1cccc2ccccc12)CN1CCOCC1 (stereo not given)", 19),
    ("C[C@@H]1C[C@H]2[C@@H]3CCC4=CC(=O)C=C[C@]4(C)[C@@]3(Cl)[C@@H](Cl)C[C@]2(C)[C@@]1(O)C(=O)COP(=O)(O)O", -10),
    ("CCCCCCCCNC(=O)C1=C(C)NC(C)=C(C(=O)NCCCCCCCC)C1", -13),
    ("Cc1ccc(NC(=O)/C(Cl)=C(\\Cl)C(=O)O)cc1C", 7),
]

So what's the measured growth inhibition for this one? CCCN(CCC)CC(O)c1cc(-c2ccc(Cl)cc2)nc2c(C)c(Cl)ccc12 (stereo not given) 7

So what's the measured growth inhibition for this one? COc1ccc(/C(C)=N/OC(=O)c2c(-c3ccccc3Cl)noc2C)cc1CN1CCOCC1 -28

So what's the measured growth inhibition for this one? CC1=C(SCCO)C(=O)c2ccccc2C1=O 0

So what's the measured growth inhibition for this one? O=CNc1ccc2c(c1)C(=O)c1ccccc1-2 22

So what's the measured growth inhibition for this one? CCC(C(=O)O)C1=C(c2ccccc2)CCc2ccccc21 (stereo not given) 30
